# EXPERIMENTAL DETAILS: Therapeutic index, ratio of CC50 for human A549 cells to IC50 for AdV5 infected in human A549 cells
# Type: toxicity, cell-based
# TEST PARAMETERS: read-out: Ratio CC50/IC50
Overview of reported selectivity ratio across a group of compounds:
No unit in the answer, only the number.

# example entries with known answers
>>> reported_result("CCCCCCCCCCCCCCCCSSCCOP(=O)(O)CO[C@H](CO)Cn1ccc(N)nc1=O.N")
55.2
>>> reported_result("CCCCCCCCCCCCSSCCCCOP(=O)(O)CO[C@H](CO)Cn1ccc(N)nc1=O")
317
>>> reported_result("CCCCCCCCCCCCSSCCOP(=O)(O)CO[C@H](CO)Cn1ccc(N)nc1=O")
59.1
>>> reported_result("CCCCCCCCCCCCCCCCSSCCCOP(=O)(O)CO[C@H](CO)Cn1ccc(N)nc1=O")
156

The recorded selectivity ratio for entry CCCCCCCCCCSSCCCCCCOP(=O)(O)CO[C@H](CO)Cn1ccc(N)nc1=O equals 83.9

Reported selectivity ratio ( CCCCCCCCCCCCCCCCCCSSCCCOP(=O)(O)CO[C@H](CO)Cn1ccc(N)nc1=O ) = 17.3

selectivity ratio measured on CCCCCCCCCCCCSSCCCOP(=O)(O)CO[C@H](CO)Cn1ccc(N)nc1=O = 37.7

// selectivity ratio lookup, compound = CCCCCCCCCCCCCCSSCCOP(=O)(O)CO[C@H](CO)Cn1ccc(N)nc1=O.N , result: 93.7

Reported selectivity ratio for CCCCCCCCCCCCCCSSCCCOP(=O)(O)CO[C@H](CO)Cn1ccc(N)nc1=O.N was 92.6

Data point: CCCCCCCCCCCCCCSSCCCCCCOP(=O)(O)CO[C@H](CO)Cn1ccc(N)nc1=O.N ; selectivity ratio = 295

In plain terms, CCCCCCCCCCCCCCSSCCCCOP(=O)(O)CO[C@H](CO)Cn1ccc(N)nc1=O.N has a documented selectivity ratio of 115
